- target_or_system: KDR (VEGFR2) (Homo sapiens (Human))
- Sequence (P35968 20-1356): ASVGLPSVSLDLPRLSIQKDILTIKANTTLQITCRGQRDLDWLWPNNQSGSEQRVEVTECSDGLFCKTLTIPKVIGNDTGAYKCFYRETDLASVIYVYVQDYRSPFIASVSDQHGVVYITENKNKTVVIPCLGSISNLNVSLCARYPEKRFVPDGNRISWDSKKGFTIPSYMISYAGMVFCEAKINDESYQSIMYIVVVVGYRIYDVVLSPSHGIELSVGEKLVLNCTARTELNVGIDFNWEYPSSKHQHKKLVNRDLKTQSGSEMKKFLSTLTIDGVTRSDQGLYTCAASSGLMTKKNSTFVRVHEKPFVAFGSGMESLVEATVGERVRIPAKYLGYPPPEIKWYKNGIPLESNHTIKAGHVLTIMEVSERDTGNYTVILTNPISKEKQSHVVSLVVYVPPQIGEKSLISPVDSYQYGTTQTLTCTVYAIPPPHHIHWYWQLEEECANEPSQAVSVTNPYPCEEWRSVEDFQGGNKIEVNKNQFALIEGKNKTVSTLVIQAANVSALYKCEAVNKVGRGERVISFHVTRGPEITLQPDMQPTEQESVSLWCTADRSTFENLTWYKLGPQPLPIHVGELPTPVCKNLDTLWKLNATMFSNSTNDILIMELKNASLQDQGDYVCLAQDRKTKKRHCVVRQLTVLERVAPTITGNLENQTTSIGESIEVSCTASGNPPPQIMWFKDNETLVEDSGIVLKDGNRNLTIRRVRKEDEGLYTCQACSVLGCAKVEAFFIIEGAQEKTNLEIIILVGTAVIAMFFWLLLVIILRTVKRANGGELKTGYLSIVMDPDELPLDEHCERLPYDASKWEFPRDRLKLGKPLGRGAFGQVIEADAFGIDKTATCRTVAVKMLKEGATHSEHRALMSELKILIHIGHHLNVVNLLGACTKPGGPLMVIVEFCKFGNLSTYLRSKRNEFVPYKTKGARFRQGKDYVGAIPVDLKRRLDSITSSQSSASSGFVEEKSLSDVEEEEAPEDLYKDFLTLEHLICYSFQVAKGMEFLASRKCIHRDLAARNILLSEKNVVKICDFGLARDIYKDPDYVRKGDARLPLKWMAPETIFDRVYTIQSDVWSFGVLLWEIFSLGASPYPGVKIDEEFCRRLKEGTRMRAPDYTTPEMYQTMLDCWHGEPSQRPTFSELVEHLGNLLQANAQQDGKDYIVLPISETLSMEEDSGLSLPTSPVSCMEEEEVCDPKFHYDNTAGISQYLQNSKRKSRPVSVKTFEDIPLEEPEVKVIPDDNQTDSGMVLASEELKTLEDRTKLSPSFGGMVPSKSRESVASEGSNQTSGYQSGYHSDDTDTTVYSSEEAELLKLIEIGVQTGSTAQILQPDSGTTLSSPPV
- procedure_details: Z′-LYTE kinase inhibition assay (Invitrogen), KDR
- Type: biochemical
- cond: 1 μM compound, Z′-LYTE method; read-out: % inhibition at 1 μM against KDR
measurement_name: inhibition at 1 µM

Answered cases to consult:
> print(dat)
                                   compound                     target.or.system  meas.value
1  O=C(Nc1ccc(C(F)(F)F)cc1)Nc1cc(F)cc(C(=O)c2ccc3nccnc3c2)c1 [Compound C066]  KDR (VEGFR2) (Homo sapiens (Human))       < 70%
2  O=C(Nc1ccc(F)c(C(=O)c2ccc3nccnc3c2)c1)c1cccc(C(F)(F)F)c1 [Compound C116]  KDR (VEGFR2) (Homo sapiens (Human))       > 89%
3  O=C(Nc1cc(F)cc(C(=O)c2ccc3nccnc3c2)c1)c1cccc(F)c1 [Compound C125]  KDR (VEGFR2) (Homo sapiens (Human))       < 70%
4  O=C(Nc1ccc(F)c(C(=O)c2ccc3ncc(N4CCNCC4)nc3c2)c1)Nc1ccc(Cl)c(C(F)(F)F)c1 [Compound C086]  KDR (VEGFR2) (Homo sapiens (Human))       > 89%
5  O=C(Nc1cccc(C(F)(F)F)c1)Nc1ccc(F)c(C(=O)c2ccc3nccnc3c2)c1F [Compound C010]  KDR (VEGFR2) (Homo sapiens (Human))       < 70%

Please turn your attention to the following entry.
Qu. Complete the entry with inhibition at 1 µM for O=C(Nc1cccc(C(=O)c2ccc3ncc(-c4cccnc4)nc3c2)c1)Nc1ccc(Cl)c(C(F)(F)F)c1 [Compound C022]
Ans. > 89%

----------
Collected inhibition at 1 µM values appear next to each entry.
- target_or_system: BRAF (Homo sapiens (Human), UniProt P15056)
- Sequence (P15056 whole entry): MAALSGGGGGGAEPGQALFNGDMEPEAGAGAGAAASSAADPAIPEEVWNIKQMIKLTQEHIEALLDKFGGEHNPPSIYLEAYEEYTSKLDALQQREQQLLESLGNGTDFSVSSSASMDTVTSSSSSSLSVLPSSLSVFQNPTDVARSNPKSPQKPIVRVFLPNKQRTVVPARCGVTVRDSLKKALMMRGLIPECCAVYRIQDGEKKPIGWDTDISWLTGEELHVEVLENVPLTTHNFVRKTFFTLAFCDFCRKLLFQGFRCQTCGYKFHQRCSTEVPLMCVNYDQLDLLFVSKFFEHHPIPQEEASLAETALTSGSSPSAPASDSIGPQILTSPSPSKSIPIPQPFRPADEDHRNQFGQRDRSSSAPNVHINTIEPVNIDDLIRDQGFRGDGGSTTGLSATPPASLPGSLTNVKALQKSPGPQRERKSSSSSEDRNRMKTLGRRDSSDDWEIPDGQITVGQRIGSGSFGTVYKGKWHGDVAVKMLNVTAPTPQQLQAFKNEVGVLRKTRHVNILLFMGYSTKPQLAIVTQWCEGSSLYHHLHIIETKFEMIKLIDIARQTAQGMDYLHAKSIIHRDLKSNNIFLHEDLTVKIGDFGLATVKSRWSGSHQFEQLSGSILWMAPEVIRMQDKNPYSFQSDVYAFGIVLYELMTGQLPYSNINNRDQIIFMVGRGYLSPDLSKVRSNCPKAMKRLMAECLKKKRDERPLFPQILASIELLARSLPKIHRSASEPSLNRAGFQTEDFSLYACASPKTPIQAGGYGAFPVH
- procedure_details: Z′-LYTE kinase inhibition assay (Invitrogen), BRAF
- Assay type: biochemical
- cond: 1 μM compound, Z′-LYTE method; read-out: % inhibition at 1 μM against BRAF

Qu. Complete the entry with inhibition at 1 µM for "O=C(Nc1cc(F)c(F)c(C(=O)c2ccc3nccnc3c2)c1)Nc1ccc(Cl)c(C(F)(F)F)c1"
Ans. < 70%

Qu. Complete the entry with inhibition at 1 µM for "O=C(Nc1cccc(C(=O)c2ccc3ncc(-c4cn[nH]c4)nc3c2)c1)c1ccc(Cl)c(C(F)(F)F)c1"
Ans. < 70%

Qu. Complete the entry with inhibition at 1 µM for "O=C(Nc1ccc(Cl)c(Cl)c1)Nc1ccc(F)c(C(=O)c2ccc3nccnc3c2)c1"
Ans. 70 to 89%

Qu. Complete the entry with inhibition at 1 µM for "O=C(Nc1cccc(C(=O)c2ccc3ncc(N4CCCC4)nc3c2)c1)c1cccc(C(F)(F)F)c1"
Ans. 70 to 89%

----------
- target_or_system: BRAF (Homo sapiens (Human))
- procedure_details: Z′-LYTE kinase inhibition assay (Invitrogen), BRAF
- Type: biochemical
- cond: 1 μM compound, Z′-LYTE method; read-out: % inhibition at 1 μM against BRAF
measurement_name: inhibition at 1 µM

Answered cases to consult:
> print(dat)
                              line.notation  meas.value
1  O=C(Nc1cccc(C(=O)c2ccc3ncc(N4CCOCC4)nc3c2)c1)c1cccc(C(F)(F)F)c1   70 to 89%
2  O=C(Nc1cc(F)cc(C(=O)c2ccc3ncc(N4CCOCC4)nc3c2)c1)Nc1ccc(Cl)c(C(F)(F)F)c1       < 70%

Please turn your attention to the following entry.
Qu. Complete the entry with inhibition at 1 µM for "O=C(Nc1cccc(C(=O)c2ccc3ncc(N4CCCC4)nc3c2)c1)Nc1cccc(C(F)(F)F)c1"
Ans. 70 to 89%

----------
- Test system: A375 cells
- procedure_details: Inhibition of cancer cell growth, MTT assay, A375
- Format: cell-based
- cond: Homo sapiens, A-375, 72 h exposure
pIC50: −log10 of the molar value.
measurement_name: pIC50

> print(dat)
                              line.notation    meas.value
1  O=C(Nc1cccc(C(=O)c2ccc3ncc(N4CCCC4)nc3c2)c1)Nc1ccc(Cl)c(C(F)(F)F)c1  5.30 to 6.00

Qu. Param request: pIC50 | system A375 cells | item "O=C(Nc1ccc(C(F)(F)F)cc1)Nc1ccc(F)c(C(=O)c2ccc3nccnc3c2)c1"
Ans. > 6.00

Qu. Param request: pIC50 | system A375 cells | item "O=C(Nc1ccc(Cl)c(C(F)(F)F)c1)Nc1cc(F)c(F)c(C(=O)c2ccc3ncc(N4CCOCC4)nc3c2)c1F"
Ans. 5.30 to 6.00

Qu. Param request: pIC50 | system A375 cells | item "O=C(Nc1cc(F)cc(C(=O)c2ccc3nccnc3c2)c1)c1cccc(F)c1"
Ans. < 5.30

Qu. Param request: pIC50 | system A375 cells | item "O=C(Nc1cccc(C(=O)c2ccc3nccnc3c2)c1)c1ccc(C(F)(F)F)c(Cl)c1"
Ans. 5.30 to 6.00

Qu. Param request: pIC50 | system A375 cells | item "O=C(Nc1cccc(C(=O)c2ccc3nccnc3c2)c1)c1cccc(F)c1"
Ans. 5.30 to 6.00

Qu. Param request: pIC50 | system A375 cells | item "O=C(Nc1cccc(F)c1)Nc1ccc(F)c(C(=O)c2ccc3nccnc3c2)c1"
Ans. 5.30 to 6.00

Qu. Param request: pIC50 | system A375 cells | item "O=C(Nc1cc(F)cc(C(=O)c2ccc3ncc(N4CCOCC4)nc3c2)c1)Nc1ccc(F)c(Cl)c1"
Ans. 5.30 to 6.00

Qu. Param request: pIC50 | system A375 cells | item "O=C(Nc1cccc(Cl)c1)Nc1ccc(F)c(C(=O)c2ccc3nccnc3c2)c1"
Ans. 5.30 to 6.00

----------
- target_or_system: BRAF V600E (Homo sapiens (Human), UniProt P15056, V600E)
- Sequence (P15056 whole entry V600E): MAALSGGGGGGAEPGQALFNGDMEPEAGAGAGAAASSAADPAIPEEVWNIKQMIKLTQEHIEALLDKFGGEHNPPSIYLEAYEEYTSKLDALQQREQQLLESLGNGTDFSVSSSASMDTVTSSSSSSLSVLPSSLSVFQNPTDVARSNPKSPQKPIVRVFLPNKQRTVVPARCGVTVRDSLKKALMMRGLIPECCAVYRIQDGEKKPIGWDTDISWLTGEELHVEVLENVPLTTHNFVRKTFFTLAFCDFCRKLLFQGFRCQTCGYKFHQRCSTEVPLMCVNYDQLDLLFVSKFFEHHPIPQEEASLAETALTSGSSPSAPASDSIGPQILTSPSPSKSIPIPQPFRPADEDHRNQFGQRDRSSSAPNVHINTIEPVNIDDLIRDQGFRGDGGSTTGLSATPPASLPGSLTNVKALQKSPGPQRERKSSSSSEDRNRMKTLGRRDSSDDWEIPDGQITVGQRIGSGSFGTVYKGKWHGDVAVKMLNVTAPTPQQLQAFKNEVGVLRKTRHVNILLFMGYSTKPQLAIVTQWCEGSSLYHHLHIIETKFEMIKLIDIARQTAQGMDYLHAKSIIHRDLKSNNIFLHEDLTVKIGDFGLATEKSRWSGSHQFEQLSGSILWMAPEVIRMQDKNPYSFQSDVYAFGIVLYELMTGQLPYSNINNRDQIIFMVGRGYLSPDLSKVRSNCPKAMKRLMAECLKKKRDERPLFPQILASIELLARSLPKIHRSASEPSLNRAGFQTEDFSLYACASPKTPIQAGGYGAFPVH
- procedure_details: Z′-LYTE kinase inhibition assay (Invitrogen), BRAF V600E
- Format: biochemical
- cond: 1 μM compound, Z′-LYTE method; read-out: % inhibition at 1 μM against BRAF V600E
- Procedure: Inhibitory activities Inhibitory activities of compounds against BRAF, and BRAF V600E were measured by Invitrogen using Z′-LYTE® Method as briefly described in the following. 4× Test compounds are dissolved in 1% DMSO. […] Fluorescence was read by plate reader. IC50 was calculated by plotting the concentration of compound vs the percentage of inhibition in treated wells using GraphPad Prism 5. […]
measurement_name: inhibition at 1 µM

Answered cases to consult:
> print(dat)
                              line.notation                          target.or.system    measurement.name  meas.value
1  O=C(Nc1cc(F)c(F)c(C(=O)c2ccc3ncc(N4CCOCC4)nc3c2)c1)Nc1ccc(Cl)c(C(F)(F)F)c1  BRAF V600E (Homo sapiens (Human), UniProt P15056, V600E)  inhibition at 1 µM   70 to 89%
2  O=C(Nc1cccc(C(=O)c2ccc3ncc(N4CCCC4)nc3c2)c1)Nc1ccc(Cl)c(C(F)(F)F)c1  BRAF V600E (Homo sapiens (Human), UniProt P15056, V600E)  inhibition at 1 µM   70 to 89%
3  O=C(Nc1cc(F)c(F)c(C(=O)c2ccc3ncc(N4CCOCC4)nc3c2)c1F)c1cccc(C(F)(F)F)c1  BRAF V600E (Homo sapiens (Human), UniProt P15056, V600E)  inhibition at 1 µM   70 to 89%
4  O=C(Nc1cc(F)cc(C(=O)c2ccc3nccnc3c2)c1)Nc1ccc(Cl)c(F)c1  BRAF V600E (Homo sapiens (Human), UniProt P15056, V600E)  inhibition at 1 µM       > 89%
5  O=C(Nc1cc(F)cc(Cl)c1)Nc1cc(F)cc(C(=O)c2ccc3nccnc3c2)c1  BRAF V600E (Homo sapiens (Human), UniProt P15056, V600E)  inhibition at 1 µM       > 89%
6  O=C(Nc1ccc(F)c(F)c1)Nc1ccc(F)c(C(=O)c2ccc3ncc(N4CCNCC4)nc3c2)c1  BRAF V600E (Homo sapiens (Human), UniProt P15056, V600E)  inhibition at 1 µM       > 89%

Qu. Complete the entry with inhibition at 1 µM for "O=C(Nc1cc(F)cc(F)c1)Nc1ccc(F)c(C(=O)c2ccc3ncc(N4CCOCC4)nc3c2)c1"
Ans. > 89%

Qu. Complete the entry with inhibition at 1 µM for "O=C(Nc1cc(F)c(F)c(C(=O)c2ccc3nccnc3c2)c1)c1cccc(F)c1"
Ans. > 89%

----------
Collected pIC50 values appear next to each entry.
- target_or_system: BRAF V600E (Homo sapiens (Human), UniProt P15056, V600E)
- procedure_details: Z′-LYTE kinase inhibition assay (Invitrogen), BRAF V600E
- cond: Z′-LYTE method; read-out: IC50 against BRAF V600E
pIC50: −log10 of the molar value.

Answered cases to consult:
> print(dat)
                              line.notation  measurement.name  meas.value
1  O=C(Nc1ccc(F)c(C(=O)c2ccc3ncc(N4CCOCC4)nc3c2)c1)Nc1ccc(Cl)c(C(F)(F)F)c1             pIC50      < 7.00
2  O=C(Nc1ccc(F)c(C(=O)c2ccc3ncc(N4CCOCC4)nc3c2)c1)c1cccc(C(F)(F)F)c1             pIC50      > 7.00
3  O=C(Nc1cccc(C(=O)c2ccc3nccnc3c2)c1)Nc1ccc(Cl)c(C(F)(F)F)c1             pIC50      > 7.00
4  O=C(Nc1cccc(C(F)(F)F)c1)Nc1ccc(F)c(C(=O)c2ccc3nccnc3c2)c1             pIC50      > 7.00
5  O=C(Nc1cc(F)cc(C(=O)c2ccc3ncc(N4CCOCC4)nc3c2)c1)Nc1cccc(C(F)(F)F)c1             pIC50      > 7.00
6  O=C(Nc1cccc(C(=O)c2ccc3ncc(N4CCCC4)nc3c2)c1)c1cccc(F)c1             pIC50      < 7.00
7  O=C(Nc1cccc(C(=O)c2ccc3ncc(N4CCCC4)nc3c2)c1)c1cccc(C(F)(F)F)c1             pIC50      > 7.00
8  O=C(Nc1cccc(C(=O)c2ccc3ncc(-c4cccnc4)nc3c2)c1)c1ccc(C(F)(F)F)c(Cl)c1             pIC50      > 7.00

Qu. Complete the entry with pIC50 for "O=C(Nc1cccc(C(=O)c2ccc3ncc(N4CCOCC4)nc3c2)c1)c1cccc(C(F)(F)F)c1"
Ans. > 7.00

Data origin, for the record: patent US10759766B2
